Assignment: determine reported normalized growth for the given molecules.
# Test Description: chemical genetic growth profiling, strain panel (AID 1159580);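 further: tested at 20 µM; growth read once vehicle control cultures reached saturation at 30 °C; 1 = growth at the plate median or of vehicle wells; lower values mean less growth of the strain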
# Condition Set: S. cerevisiae deletion strains, growth OD, locus YMR078C, strain ctf18, active compounds read low
Out of some 5,500 compounds screened, about 2,000 (36%) were called active. About 18% were inconclusive and are not listed. This is one part of the list.

| Molecule | Outcome Measure | Reported Result |
| --- | --- | --- |
| COc1cc2c(cc1OC)C1C(=O)c3c(OC)cc4c(c3OC1CO2)CCC(C)(C)O4 (stereo unspecified) | normalized growth | 0.979 (inactive) |

# per-item lookup of normalized growth; items listed below
1. CCOC(=O)C1(O)Oc2cc(OC)cc(OC)c2C(=O)C1c1ccccc1 (stereo unspecified)
2. CC(=O)N[C@@H](CC(C)C)C(=O)O
3. c1ccc(N=Nc2ccccc2)cc1
4. CC(=O)OCC[N+](C)(C)C
5. O=C(O)C1(O)C[C@@H](O)C(O)[C@H](O)C1 (stereo partly specified)

Reply text:
1. 0.979 (inactive)
2. 0.984 (inactive)
3. 1.01 (inactive)
4. 1.02 (inactive)
5. 1.02 (inactive)

----------
Assignment: determine reported normalized growth for the given compounds.
# Test Description: chemical genetic growth profiling, strain panel (AID 1159580)
# Condition Set: S. cerevisiae deletion strains, growth OD, locus YPL256C, strain CLN2, active compounds read low
In all, about 5,500 compounds went through this assay and about 2,000 (36%) were called active. Another 18% or so got no clear call; they are omitted. The list shows a part of the results.
Answers are plain numbers.

Examples from the recorded data:
| Compound | Reported Result |
| --- | --- |
| CCOC(=O)C(C)(C)Oc1ccc(Cl)cc1 | 0.923 |
| N#Cc1ccc(S(=O)(=O)Nc2ccccc2Oc2ccc(Cl)cc2Cl)cc1 | 0.967 |
| COc1ccc(CN2CSC(=S)N(Cc3ccc(OC)cc3)C2)cc1 | 0.953 |
| CCN(CC)CC#CCOC(=O)C(O)(c1ccccc1)C1CCCCC1 (stereo not given) | 1 |
| CNC(C)[C@H](O)c1ccccc1 (stereo not given in full) | 1.04 |
| CCOC(=O)[C@H](CCc1ccccc1)N[C@H]1CCc2ccccc2N(CC(=O)O)C1=O | 0.965 |
| CC(C)OC(=O)C(C)(C)Oc1ccc(C(=O)c2ccc(Cl)cc2)cc1 | 0.953 |
| CC(NCCc1ccc(O)cc1)C(O)c1ccc(O)cc1 (stereo not given) | 1.01 |
| CC(N)C(=O)OC(C)(C)Cc1ccc(Cl)cc1 (stereo not given) | 1.03 |
| CCC(NC(C)C)C(O)c1ccc(O)c(O)c1 (stereo not given) | 0.96 |

# per-item lookup of normalized growth; items listed below
1. CC(=O)OCC(=O)[C@@]1(O)CCC2C3CCC4=CC(=O)CC[C@]4(C)C3C(=O)C[C@@]21C (stereo not given in full)
2. CN1CCCN=C1COC(=O)C(O)(c1ccccc1)C1CCCCC1 (stereo not given)
3. N=c1ccn2c(n1)O[C@@H]1C2O[C@H](CO)[C@H]1O (stereo not given in full)
4. CC(CCc1ccccc1)NC(C)C(O)c1ccc(O)cc1 (stereo not given)
5. COC1=C(OC)C(=O)C(C/C=C(\C)CC/C=C(\C)CC/C=C(\C)CC/C=C(/C)CC/C=C(\C)CC/C=C(\C)CC/C=C(\C)CC/C=C(\C)CC/C=C(\C)CCC=C(C)C)=C(C)C1=O

Reply text:
1: 0.962; 2: 0.992; 3: 1.04; 4: 0.969; 5: 1.04

----------
# Test Description: chemical genetic growth profiling, strain panel (AID 1159580)
# Condition Set: S. cerevisiae deletion strains, growth OD, locus YJR043C, strain POL32, active compounds read low
The campaign covered roughly 5,500 compounds. About 2,000 (36%) were called active. Not shown: some 18% with an inconclusive outcome. This is one part of the list.
Assignment: determine reported normalized growth for the given compounds.

Examples from the recorded data:
| Compound | normalized growth |
| --- | --- |
| CO[C@H]1[C@H](O)[C@H](O[C@H]2CC[C@]3(C)C4CC[C@]5(C)C(C6=CC(=O)OC6)CC[C@]5(O)C4CC[C@@H]3C2)O[C@@H](C)[C@@H]1O (stereo partly drawn) | 1.02 (inactive) |
| COc1cc2c(cc1OC)CC(=O)OC2 | 0.993 (inactive) |

Inquiry: Request the reported normalized growth associated with Cc1ccc(-c2csc(-c3ccc(Cl)cc3)n2)c(C)c1
Reply text: 0.994 (inactive)

----------
# Test Description: chemical genetic growth profiling, strain panel (AID 1159580)
# Condition Set: S. cerevisiae deletion strains, growth OD, locus YLR085C, strain ARP6, active compounds read low
The whole screen tested about 5,500 compounds, of which about 2,000 (36%) were called active. About 18% were inconclusive and are not listed. Some of the results follow.
Assignment: determine reported normalized growth for the given compounds.
Give bare numbers.

| Compound | normalized growth |
| --- | --- |
| CC12CCC3C(CCC4=CC(=O)CCC43CO)C1CCC2OC(=O)c1ccccc1 (stereo not given) | 1 |
| Clc1cccc(Cl)c1CSC1=NCCCN1C1CCCCC1 | 0.987 |
| COc1cc(C(F)(F)F)cc(C(F)(F)F)c1C(=O)Nc1cc(C(F)(F)F)cc(C(F)(F)F)c1 | 1.03 |
| COc1cc(/C=C2\NC(=O)NC2=O)ccc1O | 0.941 |

Inquiry: Request the reported normalized growth associated with COc1ccc(C2=C(C(C)=O)C(C)=NC(=S)C2C#N)cc1 (stereo not given)
Reply text: 0.89

----------
Assignment: determine reported normalized growth for the given compounds.
# Test Description: chemical genetic growth profiling, strain panel (AID 1159580);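 further: tested at 20 µM; growth read once vehicle control cultures reached saturation at 30 °C; 1 = growth at the plate median or of vehicle wells; lower values mean less growth of the strain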
# Condition Set: S. cerevisiae deletion strains, growth OD, locus YML124C, strain tub3, active compounds read low
The campaign covered roughly 5,500 compounds. About 2,000 (36%) were called active. Another 18% or so got no clear call; they are omitted. This is one part of the list.
Answers are plain numbers.

Examples from the recorded data:
| Compound | Reported Result |
| --- | --- |
| ClC1=C(Cl)C2(Cl)C3C4C=CC(C4)C3C1(Cl)C2(Cl)Cl (stereo not drawn) | 0.984 |
| CN1CCCN=C1COC(=O)C(O)(c1ccccc1)C1CCCCC1 (stereo not drawn) | 0.992 |
| CC(C)(O)[C@@H]1[C@H]2OC(=O)[C@@H]1[C@]1(O)C[C@H]3O[C@]34C(=O)O[C@H]2[C@]14C | 1 |
| C=C1C2CC[C@H]3[C@]4(C)C[C@H](OC5OC(CO)C(OS(=O)(=O)O)C(OS(=O)(=O)O)C5OC(=O)CC(C)C)C[C@@H](C(=O)O)[C@H]4CC[C@]3(C2)[C@H]1O (stereo partly drawn) | 0.987 |
| NC(=O)c1ccc[n+]([C@@H]2O[C@H](COP(=O)([O-])OP(=O)(O)OC[C@H]3O[C@@H](n4cnc5c(N)ncnc54)[C@H](O)[C@@H]3O)[C@@H](O)[C@H]2O)c1 | 0.989 |
| CC(=O)N[C@@H](CC(C)C)C(=O)O | 0.995 |
| C=C(C)C1CNC(C(=O)O)C1CC(=O)O (stereo not drawn) | 1.02 |

# ---- query compound ----
Inquiry: Request the reported normalized growth associated with COc1cc2c(cc1OC)Cc1cc(OC)c(OC)cc1Cc1cc(OC)c(OC)cc1C2
Reply text: 1.06

----------
Assignment: determine reported normalized growth for the given molecules.
# Test Description: chemical genetic growth profiling, strain panel (AID 1159580);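 further: tested at 20 µM; growth read once vehicle control cultures reached saturation at 30 °C; 1 = growth at the plate median or of vehicle wells; lower values mean less growth of the strain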
# Condition Set: S. cerevisiae deletion strains, growth OD, locus YNL128W, strain TEP1, active compounds read low
About 2,000 (36%) of roughly 5,500 compounds were called active. Not shown: some 18% with an inconclusive outcome. The list shows a part of the results.
Numbers only.

Examples from the recorded data:
| Molecule | normalized growth |
| --- | --- |
| Cc1ccc(NC(=S)NNC(C)(C)C)cc1 | 0.94 |
| CC(=O)[C@H]1CCC2C3CCC4=CC(=O)CC[C@]4(C)C3CC[C@@]21C (stereo not given in full) | 0.99 |
| CC(=O)C1CCC2C3CC(=O)C4=CC(=O)CCC4(C)C3CCC12C (stereo not given) | 0.924 |
| C[C@]12CCC(=O)C=C1CCC1C2CC[C@@]2(C)C1CC[C@@H]2O (stereo not given in full) | 1.02 |

# ---- query molecule ----
Inquiry: Request the reported normalized growth associated with O=c1onc2cnc3ccccc3n12
Reply text: 0.967

----------
# Test Description: chemical genetic growth profiling, strain panel (AID 1159580);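 further: tested at 20 µM; growth read once vehicle control cultures reached saturation at 30 °C; 1 = growth at the plate median or of vehicle wells; lower values mean less growth of the strain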
# Condition Set: S. cerevisiae deletion strains, growth OD, locus YGL167C, strain pmr1, active compounds read low
About 2,000 (36%) of roughly 5,500 compounds were called active. Inconclusive results (about 18%) are left out. The list shows a part of the results.
Outcome Measure: normalized growth
Give bare numbers.

Examples from the recorded data:
| Compound | Outcome Measure | Reported Result |
| --- | --- | --- |
| COC1=CC(=O)C[C@@H](C)[C@]12Oc1c(Cl)c(OC)cc(OC)c1C2=O | normalized growth | 0.97 |
| CC(=O)OCC(=O)[C@H]1CCC2C3CCC4=CC(=O)CC[C@]4(C)C3CC[C@@]21C (stereo partly specified) | normalized growth | 0.951 |
| CC(C)(O)[C@@H]1[C@H]2OC(=O)[C@@H]1[C@]1(O)C[C@H]3O[C@]34C(=O)O[C@H]2[C@]14C | normalized growth | 1 |

# per-item lookup of normalized growth; items listed below
1. CC1CC2C3CCC4=CC(=O)C=C[C@]4(C)[C@@]3(F)[C@@H](O)C[C@]2(C)[C@@]1(O)C(=O)CO (stereo partly specified)
2. Oc1cc(Cl)ccc1Oc1ccc(Cl)cc1Cl
3. COc1cc(NC(C)CCCN)c2ncccc2c1 (stereo unspecified)

Reply text:
[0.983, 0.0693, 1.01]
